- measurement_target: Histone deacetylase 2 (Homo sapiens, UniProt Q92769)
- Sequence (Q92769 whole entry): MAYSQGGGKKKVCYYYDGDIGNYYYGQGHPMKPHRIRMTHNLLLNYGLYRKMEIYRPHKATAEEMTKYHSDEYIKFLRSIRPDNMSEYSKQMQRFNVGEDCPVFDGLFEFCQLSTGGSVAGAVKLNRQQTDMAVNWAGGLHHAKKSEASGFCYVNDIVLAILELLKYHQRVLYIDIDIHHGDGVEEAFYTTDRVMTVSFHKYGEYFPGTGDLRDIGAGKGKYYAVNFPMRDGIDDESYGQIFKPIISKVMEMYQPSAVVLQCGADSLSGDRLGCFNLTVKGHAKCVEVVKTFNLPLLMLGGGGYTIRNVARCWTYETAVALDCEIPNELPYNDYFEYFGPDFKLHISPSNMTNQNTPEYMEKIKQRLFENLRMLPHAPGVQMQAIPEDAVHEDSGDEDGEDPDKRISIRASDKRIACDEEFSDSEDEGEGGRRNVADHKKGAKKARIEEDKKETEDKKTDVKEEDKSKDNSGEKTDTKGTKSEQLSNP
- test_protocol: Inhibition of HDAC2 in human HeLa cells
Output schema: class label derived from IC50. Mapping: bin 1 (below 400 nM), bin 2 (400 nM to below 1000 nM), bin 3 (1000 nM or more)

## Task Textbook exercise: identify the category of the compound given here, O=C(CCCCc1ccc(-c2ccccc2)cc1)NO , according to its measured value.
## Result bin 2

## Task Class label required: O=C(/C=C/c1ccc(-c2ccc(CO)cc2)cc1)NO
## Result bin 1

## Task Into which category would you place O=C(/C=C/c1ccc(-c2ccc(Cl)cc2)cc1)NO ?
## Result bin 3

## Task Determine which band this compound sits in: CN(C)c1ccc(-c2ccc(/C=C/C(=O)NO)cc2)cc1
## Result bin 3

## Task # bin lookup: classify O=C(CCc1ccc(-c2ccc(O)cc2)cc1)NO by its IC50
## Result bin 3

## Task Using the reported IC50, which band applies to O=C(/C=C/c1ccc(-c2ccccc2)cc1)NO ?
## Result bin 2

## Task Any idea which band O=C(/C=C/c1ccc(-c2cccs2)cc1)NO is in?
## Result bin 2

## Task Bin? N#Cc1ccc(-c2ccc(/C=C/C(=O)NO)cc2)cc1
## Result bin 1

## Task # bin label for N#Cc1ccc(-c2ccc(/C=C/C=C/C(=O)NO)cc2)cc1
## Result bin 3

## Task Lab note: which band did COc1ccc(-c2ccc(/C=C/C=C/C(=O)NO)cc2)cc1 land in?
## Result bin 3

## Task In plain terms, what class is O=C(/C=C/c1ccc(-c2ccc3[nH]ccc3c2)cc1)NO ?
## Result bin 3

## Task State the band of O=C(/C=C/c1ccc(-c2ccc(O)c(Cl)c2)cc1)NO
## Result bin 2

## Task Please let me know in which category the item O=C(/C=C/c1ccc(-c2ccncc2)cc1)NO belongs.
## Result bin 3

## Task Which band does COc1ccc(-c2ccc(/C=C/C(=O)NO)cc2)cc1 fall in?
## Result bin 3

## Task Lab note: sort O=C(/C=C/c1cccc(-c2ccc(O)cc2)c1)NO into the matching IC50 band.
## Result bin 1

## Task Could you tell me which band O=C(/C=C/C1CCC(c2ccc(O)cc2)CC1)NO (configuration not stated) belongs to?
## Result bin 1

## Task # classify by IC50 band: O=C(/C=C/C=C/c1ccc(-c2ccccc2)cc1)NO
## Result bin 3

---

Answer each item with its documented pIC50.
- System: NCI-H460
- test_protocol: Antiproliferative activity against human H460 cells after 72 hrs
- Assay type: functional, cell-based
- condition_parameters: NCI-H460, 72 h
To interpret pIC50, take it as minus log10 of a concentration measured in moles per litre.

## Task State, in one line, measured pIC50 of O=C(/C=C/c1ccc(-c2ccc(CO)cc2)cc1)NO
## Result 5.42

## Task Query pIC50 for O=C(/C=C/c1ccc(-c2cccs2)cc1)NO
## Result 5.55

## Task For the compound O=C(CCc1ccc(-c2ccc(O)cc2)cc1)NO , give its measured pIC50 value.
## Result 4.82

## Task Specify reported pIC50 for the compound shown: O=C(/C=C/C=C/c1ccc(-c2ccccc2)cc1)NO
## Result 5.72

## Task Let me know recorded pIC50 for O=C(/C=C/c1cccc(-c2ccc(O)cc2)c1)NO , thanks.
## Result 5.25

## Task In one line, give reported pIC50 of the entry N#Cc1ccc(-c2ccc(/C=C/C=C/C(=O)NO)cc2)cc1 .
## Result 5.48

## Task Find the measured pIC50 of O=C(/C=C/c1ccc(-c2ccc(O)c(Cl)c2)cc1)NO and report it.
## Result 5.51

## Task Return the recorded pIC50 value; entry: O=C(/C=C/c1ccc(-c2ccccc2)cc1)NO
## Result 5.27

## Task Give the value of pIC50 reported for the following: O=C(CCCCc1ccc(-c2ccccc2)cc1)NO
## Result 5.33

## Task Query pIC50 for O=C(/C=C/C1CCC(c2ccc(O)cc2)CC1)NO (configuration not stated)
## Result 5.66

## Task Tell me measured pIC50 for COc1ccc(-c2ccc(/C=C/C(=O)NO)cc2)cc1 please.
## Result 5.43

---

- Tested on: IGROV-1
- test_protocol: Antiproliferative activity against human IGROV1 cells after 72 hrs by cell counting
- condition_parameters: IGROV-1, 72 h
If the reported IC80 equals or exceeds 10 µM, assign T. If not, assign F.

## Task Say whether O=C(/C=C/C=C/c1ccc(-c2ccccc2)cc1)NO shows IC80 of 10 µM or more.
## Result F

## Task For this molecule, is measured IC80 10 µM or higher? O=C(/C=C/c1ccc(-c2ccc(Cl)cc2)cc1)NO
## Result F

## Task Is reported IC80 greater than or equal to 10 µM here: O=C(/C=C/c1ccc(-c2cccs2)cc1)NO
## Result F

## Task Textbook exercise: given the entry O=C(/C=C/c1ccc(-c2ccc(O)cc2)cc1)NO , state whether its IC80 is greater than or equal to 10 µM.
## Result T

## Task Determine whether this molecule has IC80 no lower than 10 µM: COc1ccc(-c2ccc(/C=C/C(=O)NO)cc2)cc1
## Result F

## Task Kindly determine if IC80 recorded for CN(C)c1ccc(-c2ccc(/C=C/C(=O)NO)cc2)cc1 is above or exactly 10 µM.
## Result F

## Task Check this molecule for IC80 at or above 10 µM: O=C(/C=C/c1ccc(-c2ccc(CO)cc2)cc1)NO
## Result T

## Task Is reported IC80 greater than or equal to 10 µM here: O=C(CCCCc1ccc(-c2ccccc2)cc1)NO
## Result T

---

- Tested on: NCI-H460
- test_protocol: Antiproliferative activity against human H460 cells after 72 hrs
- Format: functional, cell-based
- condition_parameters: NCI-H460, 72 h
result_type: pIC50
Please express pIC50 as -log10 of the molar concentration.

## Task Identify pIC50 associated with the compound O=C(/C=C/c1ccc(-c2ccc3[nH]ccc3c2)cc1)NO
## Result 4.85

## Task Entry O=C(CCC1CCC(c2ccc(O)cc2)CC1)NO (centres undefined) needs its pIC50 filled in; supply it.
## Result 5.02

## Task Return reported pIC50. Input compound: O=C(/C=C/c1ccc(-c2ccc(O)cc2)cc1)NO
## Result 5.22

## Task Supply recorded pIC50 for N#Cc1ccc(-c2ccc(/C=C/C(=O)NO)cc2)cc1 here.
## Result 5.24

---

Provide the reported IC80 of each item.
- Test system: IGROV-1
- test_protocol: Antiproliferative activity against human IGROV1 cells after 72 hrs by cell counting
- condition_parameters: IGROV-1, 72 h
Please give a number only; it is taken to be in µM.

## Task Specify IC80 for N#Cc1ccc(-c2ccc(/C=C/C(=O)NO)cc2)cc1 , system IGROV-1.
## Result 10

## Task Look up and report measured IC80 (IGROV-1) for the following compound: O=C(CCc1ccc(-c2ccc(O)cc2)cc1)NO
## Result 10

## Task Tell me its IC80 on IGROV-1: COc1ccc(-c2ccc(/C=C/C=C/C(=O)NO)cc2)cc1
## Result 10
